biological target: Human Nav1.8 (Homo sapiens, UniProt Q9Y5Y9); construct: expressed in transfected cells; host or cells: HEK293; assay: VIPR Assay for Nav1.8 Compounds (FRET membrane potential, deltamethrin opener); type: cell-based; conditions: VIPR FRET membrane potential assay, deltamethrin opener; average of replicates; read-out: Nav1.8 IC50
Sequence (Q9Y5Y9 whole entry): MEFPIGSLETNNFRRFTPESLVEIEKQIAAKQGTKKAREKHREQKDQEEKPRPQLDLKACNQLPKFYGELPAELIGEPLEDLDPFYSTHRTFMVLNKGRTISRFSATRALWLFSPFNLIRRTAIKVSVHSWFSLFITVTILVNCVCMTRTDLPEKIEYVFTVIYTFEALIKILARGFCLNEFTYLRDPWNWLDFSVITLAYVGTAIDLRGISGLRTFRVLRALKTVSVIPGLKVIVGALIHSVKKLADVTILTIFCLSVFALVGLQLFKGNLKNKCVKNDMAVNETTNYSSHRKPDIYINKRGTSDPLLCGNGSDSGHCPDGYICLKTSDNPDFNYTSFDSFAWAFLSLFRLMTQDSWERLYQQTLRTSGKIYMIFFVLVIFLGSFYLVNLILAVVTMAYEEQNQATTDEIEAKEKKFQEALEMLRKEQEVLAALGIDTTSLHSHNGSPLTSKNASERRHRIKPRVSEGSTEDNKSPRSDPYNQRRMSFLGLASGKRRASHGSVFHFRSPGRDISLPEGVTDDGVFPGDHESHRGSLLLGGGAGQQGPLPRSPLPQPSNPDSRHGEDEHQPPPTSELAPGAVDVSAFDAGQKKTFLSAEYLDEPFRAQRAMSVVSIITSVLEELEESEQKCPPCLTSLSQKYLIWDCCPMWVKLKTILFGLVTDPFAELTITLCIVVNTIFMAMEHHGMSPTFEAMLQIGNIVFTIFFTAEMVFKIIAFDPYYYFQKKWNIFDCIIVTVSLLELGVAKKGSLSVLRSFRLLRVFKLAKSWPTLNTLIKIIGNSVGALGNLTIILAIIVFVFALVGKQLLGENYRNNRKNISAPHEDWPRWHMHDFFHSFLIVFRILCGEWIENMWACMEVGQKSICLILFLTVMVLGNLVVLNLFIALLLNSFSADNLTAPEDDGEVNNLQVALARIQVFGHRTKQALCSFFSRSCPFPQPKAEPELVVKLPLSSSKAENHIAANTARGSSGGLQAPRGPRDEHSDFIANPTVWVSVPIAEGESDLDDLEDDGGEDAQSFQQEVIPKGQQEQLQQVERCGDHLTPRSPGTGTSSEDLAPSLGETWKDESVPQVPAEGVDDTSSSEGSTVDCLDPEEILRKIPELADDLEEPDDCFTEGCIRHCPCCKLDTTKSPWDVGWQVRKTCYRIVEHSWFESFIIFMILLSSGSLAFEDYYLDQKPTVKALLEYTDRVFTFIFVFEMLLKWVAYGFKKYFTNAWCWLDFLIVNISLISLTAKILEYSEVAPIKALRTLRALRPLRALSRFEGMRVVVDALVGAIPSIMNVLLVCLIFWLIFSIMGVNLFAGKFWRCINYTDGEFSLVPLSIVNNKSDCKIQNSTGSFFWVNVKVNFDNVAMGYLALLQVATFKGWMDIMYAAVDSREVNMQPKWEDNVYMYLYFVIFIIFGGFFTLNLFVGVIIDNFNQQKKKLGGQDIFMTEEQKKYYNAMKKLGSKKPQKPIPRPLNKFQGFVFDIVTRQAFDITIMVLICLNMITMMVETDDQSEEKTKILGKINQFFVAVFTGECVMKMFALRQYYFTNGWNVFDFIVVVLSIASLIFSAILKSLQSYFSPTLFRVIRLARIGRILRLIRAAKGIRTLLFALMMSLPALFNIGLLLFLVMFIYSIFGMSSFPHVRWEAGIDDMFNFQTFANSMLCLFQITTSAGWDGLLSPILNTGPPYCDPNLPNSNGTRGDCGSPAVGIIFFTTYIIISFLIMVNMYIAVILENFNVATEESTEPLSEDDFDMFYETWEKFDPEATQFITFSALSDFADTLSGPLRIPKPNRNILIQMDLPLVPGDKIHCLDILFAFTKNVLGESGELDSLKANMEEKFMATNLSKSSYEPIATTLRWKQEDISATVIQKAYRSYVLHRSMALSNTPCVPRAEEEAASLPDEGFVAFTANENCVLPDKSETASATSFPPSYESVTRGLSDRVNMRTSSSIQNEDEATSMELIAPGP
Records here are stratified by IC50; strata: low: < 1000 nM; middle: ≥ 1000 nM and < 3000 nM; high: ≥ 3000 nM

[[record]]
molecule = "Cc1nocc1C(=O)Nc1ccc(-c2cc(Cl)cc(Cl)c2)c(N)n1 [Example 31]"
assignedcategory = "high"

[[record]]
molecule = "Cc1nocc1C(=O)Nc1ccc(-c2cc(F)ccc2Cl)c(N)n1 [Example 41]"
assignedcategory = "low"

[[record]]
molecule = "Nc1nc(NC(=O)c2ccno2)ccc1-c1ccccc1Cl [Example 77]"
assignedcategory = "high"

[[record]]
molecule = "Cc1nocc1C(=O)Nc1ccc(-c2ccccc2OC(F)F)c(N)n1 [Example 38]"
assignedcategory = "middle"

[[record]]
molecule = "Cn1nccc1C(=O)Nc1ccc(-c2ccc(Cl)cc2Cl)c(N)n1 [Example 15]"
assignedcategory = "high"

[[record]]
molecule = "Cc1nocc1C(=O)Nc1ccc(-c2ccccc2F)c(N)n1 [Example 33]"
assignedcategory = "high"

[[record]]
molecule = "COCc1oncc1C(=O)Nc1ccc(-c2ccccc2OC(F)(F)F)c(N)n1 [Example 93]"
assignedcategory = "middle"

[[record]]
molecule = "CCCCOc1ccc(F)cc1-c1ccc(NC(=O)c2ccnn2C)nc1N [Example 144]"
assignedcategory = "low"

[[record]]
molecule = "COc1ccc(Cl)c(-c2ccc(NC(=O)c3ccno3)nc2N)c1 [Example 76]"
assignedcategory = "low"

[[record]]
molecule = "Cn1nccc1C(=O)Nc1ccc(-c2ccccc2OCC(F)(F)F)c(N)n1 [Example 119]"
assignedcategory = "middle"

[[record]]
molecule = "Cc1nocc1C(=O)Nc1ccc(-c2ccccc2OC(F)(F)F)c(N)n1 [Example 43]"
assignedcategory = "low"

[[record]]
molecule = "CCOc1ccc(F)cc1-c1ccc(NC(=O)c2conc2C)nc1N [Example 135]"
assignedcategory = "low"

[[record]]
molecule = "Cc1oncc1C(=O)Nc1ccc(-c2cc(Cl)ccc2Cl)c(N)n1 [Example 21]"
assignedcategory = "high"

[[record]]
molecule = "Nc1nc(NC(=O)c2ccno2)ccc1-c1cc(Cl)ccc1Cl [Example 75]"
assignedcategory = "middle"

[[record]]
molecule = "COC(C)COc1ccc(F)cc1-c1ccc(NC(=O)c2ccnn2C)nc1N (stereo not shown) [Example 158]"
assignedcategory = "high"

[[record]]
molecule = "Cc1nocc1C(=O)Nc1ccc(-c2cc(F)ccc2F)c(N)n1 [Example 34]"
assignedcategory = "high"

[[record]]
molecule = "COCCCOc1ccc(F)cc1-c1ccc(NC(=O)c2conc2C)nc1N [Example 152]"
assignedcategory = "middle"

[[record]]
molecule = "Cn1nccc1C(=O)Nc1ccc(-c2cc(Cl)cc(Cl)c2Cl)c(N)n1 [Example 4]"
assignedcategory = "low"

[[record]]
molecule = "Cc1nonc1C(=O)Nc1ccc(-c2ccccc2OC(F)(F)F)c(N)n1 [Example 50]"
assignedcategory = "high"


---

biological target: Human Nav1.5 (Homo sapiens); construct: expressed in transfected cells; host or cells: HEK293; assay: Nav1.5 Assay (VIPR, HEK293 cells); assay type: cell-based; conditions: HEK293 cells expressing Human Nav1.5; average of replicates; read-out: Nav1.5 IC50
Sequence (Q14524 whole entry): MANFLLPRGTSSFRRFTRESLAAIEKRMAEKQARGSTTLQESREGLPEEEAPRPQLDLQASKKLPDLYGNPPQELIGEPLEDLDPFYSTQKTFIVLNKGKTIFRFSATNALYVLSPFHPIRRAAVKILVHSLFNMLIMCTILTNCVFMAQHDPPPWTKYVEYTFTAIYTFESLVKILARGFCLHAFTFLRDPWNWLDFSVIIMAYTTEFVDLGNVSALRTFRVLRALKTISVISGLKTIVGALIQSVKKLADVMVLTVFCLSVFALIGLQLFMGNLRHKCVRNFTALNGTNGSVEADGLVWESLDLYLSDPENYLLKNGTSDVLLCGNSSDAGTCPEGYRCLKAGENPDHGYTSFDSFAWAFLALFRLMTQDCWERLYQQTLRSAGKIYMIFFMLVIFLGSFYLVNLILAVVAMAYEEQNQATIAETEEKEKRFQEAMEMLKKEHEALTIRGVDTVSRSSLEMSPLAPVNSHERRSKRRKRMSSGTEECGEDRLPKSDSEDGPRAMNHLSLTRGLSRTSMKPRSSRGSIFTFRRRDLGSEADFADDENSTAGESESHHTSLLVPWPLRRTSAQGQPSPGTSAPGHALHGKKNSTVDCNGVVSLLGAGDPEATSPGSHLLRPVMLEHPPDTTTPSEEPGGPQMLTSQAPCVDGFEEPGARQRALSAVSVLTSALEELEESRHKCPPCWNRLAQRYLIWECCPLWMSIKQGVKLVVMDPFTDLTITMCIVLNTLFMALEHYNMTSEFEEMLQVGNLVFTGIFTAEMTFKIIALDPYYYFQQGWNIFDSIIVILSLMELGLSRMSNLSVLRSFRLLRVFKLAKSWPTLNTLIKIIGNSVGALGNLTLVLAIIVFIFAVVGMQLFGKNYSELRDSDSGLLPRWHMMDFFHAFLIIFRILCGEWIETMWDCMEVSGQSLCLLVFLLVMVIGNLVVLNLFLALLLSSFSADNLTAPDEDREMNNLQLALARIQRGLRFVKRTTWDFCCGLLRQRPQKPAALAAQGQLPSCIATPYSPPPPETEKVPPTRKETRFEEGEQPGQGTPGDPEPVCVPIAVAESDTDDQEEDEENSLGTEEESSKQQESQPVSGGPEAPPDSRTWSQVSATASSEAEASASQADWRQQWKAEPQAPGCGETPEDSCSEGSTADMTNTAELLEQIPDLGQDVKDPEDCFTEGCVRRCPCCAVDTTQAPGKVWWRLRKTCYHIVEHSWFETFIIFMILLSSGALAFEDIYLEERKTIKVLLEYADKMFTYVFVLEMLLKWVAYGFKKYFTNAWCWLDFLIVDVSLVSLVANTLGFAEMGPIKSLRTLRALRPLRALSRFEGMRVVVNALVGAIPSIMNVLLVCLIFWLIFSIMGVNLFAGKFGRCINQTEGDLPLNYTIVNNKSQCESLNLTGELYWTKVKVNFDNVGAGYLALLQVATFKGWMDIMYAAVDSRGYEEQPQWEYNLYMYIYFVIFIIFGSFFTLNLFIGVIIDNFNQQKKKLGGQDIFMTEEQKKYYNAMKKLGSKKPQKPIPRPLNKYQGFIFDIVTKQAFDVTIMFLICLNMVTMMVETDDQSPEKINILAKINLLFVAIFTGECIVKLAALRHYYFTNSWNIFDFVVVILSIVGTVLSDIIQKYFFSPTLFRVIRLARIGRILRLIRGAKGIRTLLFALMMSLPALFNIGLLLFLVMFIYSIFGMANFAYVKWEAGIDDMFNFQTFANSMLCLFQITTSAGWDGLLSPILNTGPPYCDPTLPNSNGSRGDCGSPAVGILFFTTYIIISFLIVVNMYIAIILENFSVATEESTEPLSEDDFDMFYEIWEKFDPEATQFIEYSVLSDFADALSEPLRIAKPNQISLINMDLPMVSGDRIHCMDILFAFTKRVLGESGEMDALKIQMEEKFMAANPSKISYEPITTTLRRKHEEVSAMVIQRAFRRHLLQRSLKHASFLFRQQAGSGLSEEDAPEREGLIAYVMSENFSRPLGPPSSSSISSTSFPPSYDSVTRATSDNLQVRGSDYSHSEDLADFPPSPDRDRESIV
Recorded log10(IC50) values for a group of compounds are listed next.
resultType: log10(IC50) (log10 of the value in µM)

[[record]]
compound = "Cc1nocc1C(=O)Nc1ccc(-c2ccccc2CC(F)(F)F)c(N)n1 [Example 146]"
recordedvalue = 1.11

[[record]]
compound = "CCn1nccc1C(=O)Nc1ccc(-c2cc(OC(F)(F)F)ccc2Cl)c(N)n1 [Example 65]"
recordedvalue = 1.08

[[record]]
compound = "COc1cc(Cl)c(Cl)c(-c2ccc(NC(=O)c3nonc3C)nc2N)c1 [Example 48]"
recordedvalue = 1.34

[[record]]
compound = "Cn1nccc1C(=O)Nc1ccc(-c2ccc(OCC(F)(F)F)cc2)c(N)n1 [Example 122]"
recordedvalue = 1.15

[[record]]
compound = "COCc1ccccc1-c1ccc(NC(=O)c2conc2C)nc1N [Example 129]"
recordedvalue = 1.30

[[record]]
compound = "CCOc1ccc(OC(F)(F)F)c(-c2ccc(NC(=O)c3ccnn3C)nc2N)c1 [Example 110]"
recordedvalue = 0.36

[[record]]
compound = "CCCCOc1ccc(F)cc1-c1ccc(NC(=O)c2ccnn2C)nc1N [Example 144]"
recordedvalue = 1.36

[[record]]
compound = "CCOc1ccc(Cl)c(-c2ccc(NC(=O)c3ccnn3C)nc2N)c1 [Example 150]"
recordedvalue = 1.28

[[record]]
compound = "Cn1nncc1C(=O)Nc1ccc(-c2cc(F)ccc2Cl)c(N)n1 [Example 86]"
recordedvalue = 0.88

[[record]]
compound = "Cc1nocc1C(=O)Nc1ccc(-c2cc(Cl)cc3c2OCCO3)c(N)n1 [Example 30]"
recordedvalue = 1.20

[[record]]
compound = "Cn1nncc1C(=O)Nc1ccc(-c2cc(Cl)ccc2Cl)c(N)n1 [Example 80]"
recordedvalue = 1.18

[[record]]
compound = "CCn1nccc1C(=O)Nc1ccc(-c2cc(Cl)cc(OC)c2Cl)c(N)n1 [Example 62]"
recordedvalue = 1.23

[[record]]
compound = "Cc1nonc1C(=O)Nc1ccc(-c2ccccc2OC(F)(F)F)c(N)n1 [Example 50]"
recordedvalue = 1.28

[[record]]
compound = "CCn1nccc1C(=O)Nc1ccc(-c2ccccc2Cl)c(N)n1 [Example 53]"
recordedvalue = 1.34

[[record]]
compound = "Cn1nccc1C(=O)Nc1ccc(-c2cc(OC(F)(F)F)ccc2Cl)c(N)n1 [Example 18]"
recordedvalue = 0.93

[[record]]
compound = "CCn1nccc1C(=O)Nc1ccc(-c2cccc(F)c2Cl)c(N)n1 [Example 58]"
recordedvalue = 1.49

[[record]]
compound = "Cn1nncc1C(=O)Nc1ccc(-c2cc(Cl)cc(Cl)c2Cl)c(N)n1 [Example 84]"
recordedvalue = 0.72

[[record]]
compound = "Cn1nccc1C(=O)Nc1ccc(-c2ccccc2OCC2CC2)c(N)n1 [Example 143]"
recordedvalue = 1.38

[[record]]
compound = "CCCOc1ccc(F)cc1-c1ccc(NC(=O)c2conc2C)nc1N [Example 162]"
recordedvalue = 0.89

[[record]]
compound = "COCc1oncc1C(=O)Nc1ccc(-c2cc(F)ccc2Cl)c(N)n1 [Example 92]"
recordedvalue = 1.28

[[record]]
compound = "Cc1nocc1C(=O)Nc1ccc(-c2cc(O)cc(Cl)c2Cl)c(N)n1 [Example 176]"
recordedvalue = 1.00

[[record]]
compound = "Cc1nocc1C(=O)Nc1ccc(-c2cc(OC(F)(F)F)ccc2Cl)c(N)n1 [Example 37]"
recordedvalue = 0.56

[[record]]
compound = "COc1ccc(OC(F)(F)F)c(-c2ccc(NC(=O)c3conc3C)nc2N)c1 [Example 148]"
recordedvalue = 1.00

[[record]]
compound = "COc1ccc(OC(F)(F)F)c(-c2ccc(NC(=O)c3ccnn3C)nc2N)c1 [Example 140]"
recordedvalue = 1.26

[[record]]
compound = "Cc1nocc1C(=O)Nc1ccc(-c2cc(F)ccc2C(F)(F)F)c(N)n1 [Example 39]"
recordedvalue = 1.32

[[record]]
compound = "COc1cc(Cl)cc(-c2ccc(NC(=O)c3ccnn3C)nc2N)c1Cl [Example 8]"
recordedvalue = 1.30

[[record]]
compound = "COc1cc(Cl)c(Cl)c(-c2ccc(NC(=O)c3cnnn3C)nc2N)c1 [Example 81]"
recordedvalue = 0.46

